test system: OVCAR-3 ovarian; experiment: NCI-60 one-dose screen, 48 h; conditions: 10 µM unless noted
The panel holds about 83,000 compounds, 20% with a hit somewhere; the sample as a whole holds those more often. The source made the active and inactive calls. The calls were made as follows: active = growth percent below 10; inactive = the rest.
Pick one: active, inactive

Below are worked cases with known answers.
CCN1C(=O)N(CC)C2C1NN=c1s/c(=C\c3cc4ccccc4[nH]3)c(=O)n12 (centres undefined) : inactive
COc1ccc2c(c1)c(-c1nonc1-c1c[nH]c3ccc(Br)cc13)cn2C : inactive
COc1ccc(C2CC(c3ccc4c(c3)OCO4)=Nc3c(N)ncnc3N2)cc1 (centres undefined) : inactive
COc1ccc(/C(C)=C(\c2ccc(OCCN3CCCCCC3)cc2)c2ccc(OC(=O)c3ccccc3)cc2)cc1 : inactive

Dear colleague, could you share the recorded outcome for `CCN(CC)CCNC(=O)c1ccc(-c2nc3ccc4[nH]ncc4c3c3c2CCCC3)cc1` when you have a moment?
inactive

Dear colleague, could you share the recorded outcome for `N#Cc1c(-c2ccccc2)cc(-c2ccccc2)n(CCCC(=O)NO)c1=O` when you have a moment?
active

Dear colleague, could you share the recorded outcome for `CC(C)c1ccc(NC(=O)Nc2ccc(NC(=O)c3ccccc3N)cc2)cc1` when you have a moment?
inactive

Dear colleague, could you share the recorded outcome for `Nc1c(C(=O)Nc2cccc3ncccc23)sc2nc3c(cc12)C(=O)CCC3` when you have a moment?
inactive

Dear colleague, could you share the recorded outcome for `COc1ccc(-c2cc(-c3cc(OC)c(OC)c(OC)c3)c(C#N)c(=O)n2CCCCCC(=O)NO)cc1` when you have a moment?
inactive

====

Tested on: NCI-H226 lung
Test: NCI-60 one-dose screen, 48 h
Settings: 10 µM unless noted
Procedure: Growth inhibition of the NCI-H226 human Non-Small Cell Lung tumor cell line is measured as a screen for anti-cancer activity. Cells are grown in 96 well plates and exposed to the test compound for 48 hours. Compounds are tested at a single concentration, which is 10^-5 M for most compounds. The reported endpoint is percent growth (GI% or GIPRCNT), where numbers from 0 - 100% represent growth inhibition, and numbers from -100% - 0 represent cell death. […]
The panel holds about 83,000 compounds, 20% with a hit somewhere; the sample as a whole holds those more often. Activity calls are given as the source filed them. The calls were made as follows: active = growth percent below 10; inactive = the rest.
Pick one: active, inactive

Below are worked cases with known answers.
C#CCOc1cccc(-c2ncc3cc(NC(=O)CCl)ccc3n2)c1 : active
COC(=O)c1ccc2c(c1)c1c(C)c3ccncc3c(C)c1n2C : inactive
CCCCCCCCCCCCCCCCCCOc1ccccc1CC(=O)NCC[N+]1(C)CCOCC1 : inactive
Cc1cccc(N2CCN(C(=S)c3ccc4c(c3)OCO4)CC2)c1 : inactive
CCc1cccc(Sc2cc(C(=O)N3Cc4ccc(OCCN(C)C)cc4C3)ccc2O)c1 : inactive
Cc1ccc(-c2nc(C#N)c(S(=O)(=O)NCCO)o2)cc1 : inactive
CS(=O)(=O)Nc1cc(-c2ccc3ncnc(Nc4ccc5c(cnn5Cc5cccnc5)c4)c3c2)cnc1Cl : inactive
Cn1cc(C(=O)c2nc(-c3c[nH]c4ccc(Br)cc34)no2)c2cc(Br)ccc21 : inactive
COc1cc(C2C3=C(COC3=O)N(CCO)c3cc4c(cc32)OCCO4)cc(OC)c1OC (stereo not given) : inactive

Now examine the next entry.
Dear colleague, could you share the recorded outcome for O=P(O)(O)OCC1OC(n2cnc3c(NCc4ccccc4)ncnc32)C(O)C1O (stereo not given) when you have a moment?
inactive

====

tested on: OVCAR-5 ovarian; assay: NCI-60 one-dose screen, 48 h; conditions: 10 µM unless noted
About 83,000 compounds went through this panel and 20% of them were active in at least one assay; those are over-represented in the sample as a whole. The source made the active and inactive calls. Rule for the calls: active = growth percent below 10; inactive = the rest.
Pick one: active, inactive

Below are worked cases with known answers.
Nc1ccc([N+](=O)[O-])cc1N=C/C=C/c1ccccc1 : inactive
Cn1cc(-c2nonc2-c2c[nH]c3ccc(F)cc23)c2cc(Br)ccc21 : inactive
C#CC#CC#CC#CC#CC#CC#CC#CC[C@H]1OC[C@@H](COC(=O)O[C@@H](C(=O)O[C@H]2C[C@@]3(O)[C@@H](OC(=O)c4ccccc4)[C@@H]4[C@]5(OC(C)=O)CO[C@@H]5C[C@H](O)[C@@]4(C)C(=O)[C@H](OC(C)=O)C(=C2C)C3(C)C)[C@@H](NC(=O)c2ccccc2)c2ccccc2)O1 : inactive
COc1ccc(C2CC(c3ccc(Nc4nc(Nc5ccc(F)cc5)nc(Nc5ccc(F)cc5)n4)cc3)=NN2C(C)=O)cc1 (centres undefined) : inactive
NC(=O)c1ccc(NC(=O)c2oc3ccccc3c2-c2cnn(-c3ccccc3)c2)cc1 : active
CCn1cc(C2=C(c3cn(C)c4ncccc34)C(=O)NC2=O)c2cccnc21 : inactive
CC(C(=O)O)n1c(O)c(C=Nc2cccnc2)sc1=S (centres undefined) : inactive
Brc1ccc(-c2cnc3nonc3n2)cc1 : inactive

Dear colleague, could you share the recorded outcome for `COc1ccc2nc3ccccc3c(NCc3ccc(F)cc3)c2c1` when you have a moment?
inactive

====

tested on: ACHN renal; test: NCI-60 one-dose screen, 48 h; conditions: 10 µM unless noted
About 83,000 compounds went through this panel and 20% of them were active in at least one assay; those are over-represented in the sample as a whole. Calls of active or inactive are those of the source. Rule for the calls: active = growth percent below 10; inactive = the rest.
Pick one: active, inactive

Below are worked cases with known answers.
N#Cc1c(-c2cccc([N+](=O)[O-])c2)cc(-c2ccc(Nc3nc(Nc4ccc(F)cc4)nc(Nc4ccc(F)cc4)n3)cc2)nc1N : inactive
CC1(C)CCC(S(=O)(=O)c2ccc3c(c2)/C(=N\O)c2cc(S(=O)(=O)N4CCN(c5ccc(F)cc5O)CC4)ccc2-3)CC1 : active

Dear colleague, could you share the recorded outcome for `C#CC#CC#CC#CC#CC#CC#CC#CC[C@H]1OC[C@H](COC(=O)O[C@@H](C(=O)O[C@H]2C[C@@]3(O)[C@@H](OC(=O)c4ccccc4)[C@@H]4[C@]5(OC(C)=O)CO[C@@H]5C[C@H](O)[C@@]4(C)C(=O)[C@H](OC(C)=O)C(=C2C)C3(C)C)[C@@H](NC(=O)c2ccccc2)c2ccccc2)O1` when you have a moment?
inactive

Dear colleague, could you share the recorded outcome for `CN(C)c1ccc(/C=C2/C=C(c3ccccc3)OC2=O)cc1` when you have a moment?
inactive

Dear colleague, could you share the recorded outcome for `CNCc1cccc2c1OCCOCCN(C)C(=O)CN(C)S(=O)(=O)c1ccc(cc1)-c1cnc(N)c(n1)C(=O)N2` when you have a moment?
active

Dear colleague, could you share the recorded outcome for `CCOC(=O)n1cc(-c2nonc2-c2cn(C)c3ccccc23)c2ccccc21` when you have a moment?
inactive

Dear colleague, could you share the recorded outcome for `CCN(C(=O)N1CCN(c2cc3c(cc2F)c(=O)c(C(=O)O)cn3C2CC2)CC1)c1nc(-c2ccc(C)cc2)cs1` when you have a moment?
active

Dear colleague, could you share the recorded outcome for `COc1ccc(-c2ccc(=O)oc2C#Cc2cc(OC)c(OC)c(OC)c2)cc1O` when you have a moment?
inactive

Dear colleague, could you share the recorded outcome for CC(C)CCC[C@@H](C)C1CCC2C3CCC4=C/C(=N/OCCN(C)C)CC[C@]4(C)C3CC[C@@]21C (some centres not stated) when you have a moment?
inactive

====

tested on: SF-268 CNS; test: NCI-60 one-dose screen, 48 h (100 = growth as untreated, 0 = no growth, -100 = all killed); conditions: 10 µM unless noted
Compounds without any hit were thinned out: in the full panel of roughly 83,000, 20% have a hit.
Assignment: determine reported growth for the given molecules.
Answers are plain numbers, in %.

Record excerpt, results attached:
C#CCOc1ccc2ncnc(Nc3cccc(NC(=O)CCl)c3)c2c1 : 60.6
O=C(CCCCCCN1CC(=O)N2[C@@H](C3CCCCC3)c3[nH]c4ccccc4c3C[C@H]2C1=O)NO : 106

For each listed entry, give its growth.
1. COC(=O)c1ccc2c(c1)c1c(C)c3ccncc3c(C)c1n2C
2. COc1ccc2cc(-c3ccc(-c4ccc(C(=N)N)s4)s3)ccc2c1
3. CCCCCn1sc(=O)n(Cc2ccc(CNC(=O)OCc3ccc4c(Cl)cc(Cl)c(O)c4n3)cc2)c1=O
4. CCC(CC)(N(CC(=O)O)CC(=O)O)C(CC)(CC)N(CC(=O)O)CC(=O)O
5. COc1ccc(C(C)=O)cc1S(N)(=O)=O
6. O=C(CCCCl)NNc1nccc(Nc2ccc(S(=O)(=O)Nc3ccncc3)cc2)n1
7. COc1ccc2[nH]cc(-c3nc(-c4cn(C)c5ccncc45)cs3)c2c1

1. 26.3
2. -33.9
3. 66.6
4. 114
5. 101
6. 95.9
7. 87.1

// output growth; input `Cn1cc(-c2ccc3cc(-c4ccc(CC(=O)Nc5cc(C(C)(C)C)on5)cc4)cnc3c2)cn1` ; system SF-268 CNS
15.7

====

Assignment: determine reported growth for the given compounds.
system: SF-539 CNS; test: NCI-60 one-dose screen, 48 h (100 = growth as untreated, 0 = no growth, -100 = all killed); settings: 10 µM unless noted
This is part of a sample that, as a whole, favours compounds with a hit. Of some 83,000 tested, about 20% had one in any assay. Active and inactive are the calls of the source. How the source made its calls: active means growth percent below 10; inactive means the rest.

Record excerpt, results attached:
Oc1c(I)cc(-c2nc3ccccc3s2)cc1CN(Cc1ccccn1)Cc1ccccn1 : 4.13% (active)
CNC(=O)c1c(NC(=O)c2ccc(C(C)(C)C)cc2)sc2c(CN(C)C)c(O)ccc12 : -71.1% (active)
N#Cc1c(-c2cccc([N+](=O)[O-])c2)cc(-c2ccc(Nc3nc(Nc4ccc(F)cc4)nc(Nc4ccc(F)cc4)n3)cc2)nc1N : 127% (inactive)

For each listed entry, give its growth.
1. O=C1C(Cl)=C(NCCN2CCOCC2)C(=O)c2ncccc21
2. O=C(CN1CCN(c2cc3c(cc2F)c(=O)c(C(=O)O)cn3C2CC2)CC1)N/N=C/c1ccncc1
3. CCOC(=O)c1c(-c2ccccc2)n2c(=O)cc(C)c3c(O)c(O)cc1c32
4. Cn1cc(-c2nonc2-c2c[nH]c3ccc(F)cc23)c2cc(Br)ccc21
5. C=CCCC(=O)N1C=CC(=O)[C@H](O)[C@@H]1/C=C/c1ccccc1
6. COc1cc(Nc2c3ccc(Cl)cc3nc3ccc(OC)cc23)c2ncccc2c1

["-85.8% (active)", "95.6% (inactive)", "75.7% (inactive)", "67.8% (inactive)", "19.2% [100 µM] (inactive)", "45% (inactive)"]

Fill in growth for record COc1cc(OC)cc(C2C(C#N)=C(N)Oc3c2ccc2ccc(O)cc32)c1 (stereo not given)
-9% (active)
